Target: furin, P09958;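 also: purified furin at 1:10 enzyme:substrate in 50 mM HEPES pH 7.5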
Sequence (P09958 whole entry): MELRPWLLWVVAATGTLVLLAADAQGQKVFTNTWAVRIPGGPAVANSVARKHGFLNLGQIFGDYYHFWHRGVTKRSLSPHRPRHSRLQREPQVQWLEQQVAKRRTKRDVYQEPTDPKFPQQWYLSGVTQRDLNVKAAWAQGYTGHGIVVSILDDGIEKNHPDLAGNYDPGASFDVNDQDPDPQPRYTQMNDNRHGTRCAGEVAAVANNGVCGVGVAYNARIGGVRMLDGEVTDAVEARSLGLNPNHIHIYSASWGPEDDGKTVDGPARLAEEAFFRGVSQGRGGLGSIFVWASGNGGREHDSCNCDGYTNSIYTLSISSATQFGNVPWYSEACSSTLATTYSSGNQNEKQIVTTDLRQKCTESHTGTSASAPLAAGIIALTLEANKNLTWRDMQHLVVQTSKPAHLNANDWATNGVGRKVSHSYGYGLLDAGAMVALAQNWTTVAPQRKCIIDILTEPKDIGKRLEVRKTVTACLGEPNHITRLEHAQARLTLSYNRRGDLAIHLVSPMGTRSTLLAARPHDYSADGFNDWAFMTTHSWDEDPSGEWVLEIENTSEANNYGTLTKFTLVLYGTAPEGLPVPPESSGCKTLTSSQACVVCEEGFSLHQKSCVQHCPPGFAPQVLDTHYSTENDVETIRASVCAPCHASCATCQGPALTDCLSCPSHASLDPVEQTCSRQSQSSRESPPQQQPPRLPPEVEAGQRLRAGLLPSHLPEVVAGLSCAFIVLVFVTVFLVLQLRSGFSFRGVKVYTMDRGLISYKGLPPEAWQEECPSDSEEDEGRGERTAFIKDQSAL
Assay: furin cleavage Z-score vs untreated control; higher = more cleavage, active = 3.5 or more, inactive = 1 or less, 8 variable residues between constant flanks
Conditions: 15 min
Some of the results follow. The true hit rate is not given.
Respond only with the outcome that fits, drawn from 1 (active), 0 (inactive)

CASDDRLCRSAGNASASA [FS-1484] ... 0
CAVVCCSPSYAGNASASA [HC2059] ... 0

Here is the next item to consider.
INPUT: Dear colleague, could you share the recorded outcome for CAMRSPVFTDAGNASASA [HC763] when you have a moment?
OUTPUT: 0
